Test system: Human immunodeficiency virus 1
assay summary: Compound was tested for its antiviral potency against human immunodeficiency virus type 1
Type: functional
measurement setup: read-out: ID50 (the source's name)
Each item that follows carries a reported IC50.
# value in nM; strip the unit string

COc1ccc(S(=O)(=O)N(CC(C)C)CC(O)C(Cc2ccccc2)NC(=O)O[C@H]2CO[C@H]3OCC[C@H]32)cc1 (some centres not stated) = 1.4

Noted for CC(C)(C)NC(=O)[C@@H]1C[C@@H]2CCCC[C@@H]2CN1CC(O)C(Cc1ccccc1)NC(=O)O[C@H]1CO[C@H]2OCC[C@H]21 (some centres not stated) : its IC50 reads 50

* * *

Test system: MT4
assay summary: Inhibitory activity against HIV-1 virus in MT-4 human T-lymphoid cells
Format: functional
measurement setup: read-out: ID50 (the source's name)
measurement kind: IC50 (nM)
# value in nM; strip the unit string

Noted for CC1CCCCCCCCCCOC(=O)N(CC(O)C(Cc2ccccc2)NC(=O)O[C@H]2CO[C@H]3OCC[C@H]32)C1 (stereo partly specified) : its IC50 reads 2500

* * *

target: Human immunodeficiency virus type 1 protease (Human immunodeficiency virus 1, UniProt Q72874)
measurement kind: Ki

Noted for C=CCCCCCCC(OC(=O)N(CCCCC=C)CC(O)C(Cc1ccccc1)NC(=O)O[C@H]1CO[C@H]2OCC[C@H]21)c1ccccc1 (stereo partly drawn) : its Ki reads 444 nM

Noted for O=C(NC(Cc1ccccc1)C(O)CN1CCCCCCCCCCC(c2ccccc2)OC1=O)O[C@H]1CO[C@H]2OCC[C@H]21 (stereo partly drawn) : its Ki reads 189 nM

Noted for O=C(NC(Cc1ccccc1)C(O)CN1CCCCCCCCCCCC(c2ccccc2)OC1=O)O[C@H]1CO[C@H]2OCC[C@H]21 (stereo partly drawn) : its Ki reads 357 nM

Noted for O=C(NC(Cc1ccccc1)C(O)CN1CCCCCCCCC/C=C/CC(c2ccccc2)OC1=O)O[C@H]1CO[C@H]2OCC[C@H]21 (stereo partly drawn) : its Ki reads 167 nM

Noted for COc1ccc(S(=O)(=O)N(CC(C)C)CC(O)C(Cc2ccccc2)NC(=O)O[C@H]2CO[C@H]3OCC[C@H]32)cc1 (stereo partly drawn) : its Ki reads 0.015 nM

Noted for C=CCCCCCCCCN(CC(O)C(Cc1ccccc1)NC(=O)O[C@H]1CO[C@H]2OCC[C@H]21)C(=O)OC(CC=C)c1ccccc1 (stereo partly drawn) : its Ki reads > 1000 nM

Noted for CC1CCCCCCCCCCCOC(=O)N1CC(O)C(Cc1ccccc1)NC(=O)O[C@H]1CO[C@H]2OCC[C@H]21 (stereo partly drawn) : its Ki reads 30 nM

Noted for O=C(NC(Cc1ccccc1)C(O)CN1C/C=C\CCCCCCCCOC1=O)O[C@H]1CO[C@H]2OCC[C@H]21 (stereo partly drawn) : its Ki reads 125 nM

Noted for C=CCCCCCCCC(OC(=O)N(CC=C)CC(O)C(Cc1ccccc1)NC(=O)O[C@H]1CO[C@H]2OCC[C@H]21)c1ccccc1 (stereo partly drawn) : its Ki reads > 1000 nM

Noted for O=C(NC(Cc1ccccc1)C(O)CN1CCCCCCCCCCCCOC1=O)O[C@H]1CO[C@H]2OCC[C@H]21 (stereo partly drawn) : its Ki reads 14 nM

Noted for C=CCCCCCCCOC(=O)N(CC(C)CC=C)CC(O)C(Cc1ccccc1)NC(=O)O[C@H]1CO[C@H]2OCC[C@H]21 (stereo partly drawn) : its Ki reads > 1000 nM

Noted for O=C(NC(Cc1ccccc1)C(O)CN1CCCC/C=C/CCCCCCC(c2ccccc2)OC1=O)O[C@H]1CO[C@H]2OCC[C@H]21 (stereo partly drawn) : its Ki reads 162 nM

Noted for CC1CCCCCCCCCCOC(=O)N(CC(O)C(Cc2ccccc2)NC(=O)O[C@H]2CO[C@H]3OCC[C@H]32)C1 (stereo partly drawn) : its Ki reads 6.1 nM

Hello, the source for this data is ChEMBL document CHEMBL1135191, in case you need it.
